Test System: T1, human proliferating cell nuclear antigen (human, UniProt P12004 1-259)
T1 construct: also called hPCNA; human PCNA
T1 sequence (P12004 1-259): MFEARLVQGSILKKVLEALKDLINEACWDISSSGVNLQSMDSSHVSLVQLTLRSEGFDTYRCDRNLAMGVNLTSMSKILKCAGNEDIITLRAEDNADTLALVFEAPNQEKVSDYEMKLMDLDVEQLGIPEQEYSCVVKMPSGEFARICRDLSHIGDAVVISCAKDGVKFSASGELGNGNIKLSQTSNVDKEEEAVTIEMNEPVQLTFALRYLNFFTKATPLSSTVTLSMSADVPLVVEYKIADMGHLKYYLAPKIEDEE
Assay: SPR; peptide against human PCNA, tested in triplicate; immobilisation of human PCNA not described here (SPR as previously described, ref. 18)
Measurement Setup: both partners purified
Ends that are not written are not given here.
Measure: Kd (nM)
# number only, unit nM dropped from output

input: Look up Kd: KRRMPTDIRNFFHSKR-NH2 (also called p21μafumRFC; p21µRFC; source: synthetic peptide, Genscript Biotech (>95%, HPLC)) [p21µ-afumRFC peptide]
output: 295
